src = paper PMC6420351

# TEST_SUMMARY: Detection and quantification of abn-CBD in the ocular tissues
# Format: in vivo, Balb/cJ mice
# MEASUREMENT_PARAMETERS: Balb/cJ, mouse, eye (PBS-perfused, homogenised), ip, 15 mg/kg
PROPERTY: half-life

Task: Returns the measured half-life for the input compound. Input: C=C(C)[C@@H]1CCC(C)=C[C@H]1c1c(O)cc(O)cc1CCCCC [abn-CBD]
Result: ~7 h
